Assay: Protein binding in rat brain homogenates
Format: in vitro ADME
Conditions: mouse, brain homogenate
observationType: fraction unbound

Incoming: Please supply the value of reported fraction unbound for the item C[C@@H]1CN(Cc2ccc3c(c2)c(=O)c(C(N)=O)cn3-c2ccc(F)cc2)C[C@H](C)O1 [Compound 58]
Outgoing: 0.25 to 0.3

====

Assay: Mouse plasma protein binding
Assay type: in vitro ADME
observationType: fraction unbound
Answer field: number only, no words.

Incoming: Please supply the value of reported fraction unbound for the item `C[C@@H]1CN(Cc2ccc3c(c2)c(=O)c(C(N)=O)cn3-c2ccc(F)cc2)C[C@H](C)O1`
Outgoing: 0.315

====

Assay: Rat IV PK
Assay type: in vivo
Settings: rat, plasma, iv, 0.2 mg/kg, t1/2, rat iv 0.2 mg/kg
observationType: half-life (h)
Express your answer in h, writing the number without its unit.

Incoming: Please supply the value of reported half-life for the item C[C@@H]1CN(Cc2ccc3c(c2)c(=O)c(C(N)=O)cn3-c2ccc(F)cc2)C[C@H](C)O1 [Compound 58]
Outgoing: 2.35

====

Target: UniProt P08183
Assay: Permeability in MDR1-MDCK cells
Type: in vitro ADME
Conditions: dog (MDCK cells), human MDR1 expressed
observationType: efflux ratio
Answer field: number only, no words.

Incoming: Please supply the value of reported efflux ratio for the item `C[C@@H]1CN(Cc2ccc3c(c2)c(=O)c(C(N)=O)cn3-c2ccc(F)cc2)C[C@H](C)O1`
Outgoing: 52

====

Tested on: P-gp
Experiment: Mouse IP tissue distribution with P-gp inhibitor 109 pretreatment
Format: in vivo
Settings: mouse, brain, ip, with 109 (elacridar), 20 mg/kg, dosed 1 h before compound 58
observationType: Kp at 15 min
Answer field: number only, no words.

Incoming: Please supply the value of reported Kp at 15 min for the item `C[C@@H]1CN(Cc2ccc3c(c2)c(=O)c(C(N)=O)cn3-c2ccc(F)cc2)C[C@H](C)O1`
Outgoing: 2.1

====

System: P-gp
Test: Mouse IP tissue distribution with P-gp inhibitor 109 pretreatment
Format: in vivo
Conditions: mouse, brain, ip, with 109 (elacridar), 20 mg/kg, dosed 1 h before compound 58
observationType: Kp uu at 15 min
Answer field: number only, no words.

Incoming: Please supply the value of reported Kp uu at 15 min for the item C[C@@H]1CN(Cc2ccc3c(c2)c(=O)c(C(N)=O)cn3-c2ccc(F)cc2)C[C@H](C)O1 [Compound 58]
Outgoing: 1.7

====

Assay: Protein binding in mouse brain homogenates
Assay type: in vitro ADME
Conditions: brain homogenate
observationType: fraction unbound
Answer field: number only, no words.

Incoming: Please supply the value of reported fraction unbound for the item `C[C@@H]1CN(Cc2ccc3c(c2)c(=O)c(C(N)=O)cn3-c2ccc(F)cc2)C[C@H](C)O1`
Outgoing: 0.257

====

Target: P-gp (MDR1) (Homo sapiens, UniProt P08183)
Sequence (P08183 whole entry): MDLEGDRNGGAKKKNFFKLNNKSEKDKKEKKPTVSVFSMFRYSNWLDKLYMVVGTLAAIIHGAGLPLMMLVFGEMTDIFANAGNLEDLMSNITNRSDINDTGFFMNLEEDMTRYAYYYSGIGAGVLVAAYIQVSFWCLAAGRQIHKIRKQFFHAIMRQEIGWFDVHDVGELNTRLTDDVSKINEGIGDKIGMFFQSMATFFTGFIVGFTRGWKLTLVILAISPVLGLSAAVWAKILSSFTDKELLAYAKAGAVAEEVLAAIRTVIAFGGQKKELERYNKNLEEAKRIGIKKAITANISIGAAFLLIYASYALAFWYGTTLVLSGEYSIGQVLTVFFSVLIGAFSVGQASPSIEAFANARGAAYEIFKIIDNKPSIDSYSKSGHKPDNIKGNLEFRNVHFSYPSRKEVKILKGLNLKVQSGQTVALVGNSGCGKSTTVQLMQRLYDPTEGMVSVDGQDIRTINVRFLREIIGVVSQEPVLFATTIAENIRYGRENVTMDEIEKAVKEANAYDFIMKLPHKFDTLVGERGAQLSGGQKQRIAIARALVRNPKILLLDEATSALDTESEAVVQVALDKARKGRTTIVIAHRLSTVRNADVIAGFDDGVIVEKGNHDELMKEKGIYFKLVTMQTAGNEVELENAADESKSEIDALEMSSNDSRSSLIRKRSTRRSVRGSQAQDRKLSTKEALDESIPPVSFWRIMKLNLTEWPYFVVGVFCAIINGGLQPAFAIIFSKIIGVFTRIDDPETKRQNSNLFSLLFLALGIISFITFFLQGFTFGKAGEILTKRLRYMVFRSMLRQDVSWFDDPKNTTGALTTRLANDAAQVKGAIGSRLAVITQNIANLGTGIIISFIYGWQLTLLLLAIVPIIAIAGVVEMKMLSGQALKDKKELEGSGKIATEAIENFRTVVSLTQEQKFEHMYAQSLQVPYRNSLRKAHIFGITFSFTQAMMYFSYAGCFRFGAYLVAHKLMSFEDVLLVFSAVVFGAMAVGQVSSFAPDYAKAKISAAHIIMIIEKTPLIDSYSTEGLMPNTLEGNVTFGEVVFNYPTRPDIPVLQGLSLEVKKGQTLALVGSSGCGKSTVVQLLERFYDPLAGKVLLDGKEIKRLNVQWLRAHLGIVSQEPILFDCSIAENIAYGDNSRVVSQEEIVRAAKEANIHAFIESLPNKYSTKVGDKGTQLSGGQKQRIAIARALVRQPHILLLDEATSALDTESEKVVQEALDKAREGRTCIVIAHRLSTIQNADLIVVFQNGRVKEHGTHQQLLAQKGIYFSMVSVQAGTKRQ
Assay: Permeability in MDR1-MDCK cells
Format: in vitro ADME
Conditions: dog (MDCK cells), human MDR1 expressed
observationType: Papp A→B (×10⁻⁶ cm/s)
Express your answer in ×10⁻⁶ cm/s, writing the number without its unit.

Incoming: Please supply the value of reported Papp A→B for the item `C[C@@H]1CN(Cc2ccc3c(c2)c(=O)c(C(N)=O)cn3-c2ccc(F)cc2)C[C@H](C)O1`
Outgoing: 1.54

====

Assay: Mouse IP tissue distribution
Assay type: in vivo
Conditions: mouse, brain, ip, 30 mg/kg, unbound brain concentration, mouse ip 30 mg/kg
observationType: concentration at 15 min (nM)
Express your answer in nM, writing the number without its unit.

Incoming: Please supply the value of reported concentration at 15 min for the item C[C@@H]1CN(Cc2ccc3c(c2)c(=O)c(C(N)=O)cn3-c2ccc(F)cc2)C[C@H](C)O1 [Compound 58]
Outgoing: 184

====

Experiment: Mouse IP tissue distribution
Assay type: in vivo
Conditions: mouse, brain, ip, 30 mg/kg, brain concentration, mouse ip 30 mg/kg
observationType: concentration at 15 min (nM)
Express your answer in nM, writing the number without its unit.

Incoming: Please supply the value of reported concentration at 15 min for the item `C[C@@H]1CN(Cc2ccc3c(c2)c(=O)c(C(N)=O)cn3-c2ccc(F)cc2)C[C@H](C)O1`
Outgoing: 716

====

Test: Rat IV PK
Format: in vivo
Conditions: rat, plasma, iv, 0.2 mg/kg
observationType: clearance
# do not omit the unit; it follows the number

Incoming: Please supply the value of reported clearance for the item C[C@@H]1CN(Cc2ccc3c(c2)c(=O)c(C(N)=O)cn3-c2ccc(F)cc2)C[C@H](C)O1 [Compound 58]
Outgoing: 75.8 mL/min/kg

====

Test: Mouse IP tissue distribution
Assay type: in vivo
Conditions: mouse, brain, ip, 30 mg/kg
observationType: Kp uu at 0.25 h
Answer field: number only, no words.

Incoming: Please supply the value of reported Kp uu at 0.25 h for the item `C[C@@H]1CN(Cc2ccc3c(c2)c(=O)c(C(N)=O)cn3-c2ccc(F)cc2)C[C@H](C)O1`
Outgoing: 0.32

====

Assay: Rat IP tissue distribution
Format: in vivo
Settings: rat, brain, ip, 30 mg/kg
observationType: Kp at 0.25 h
Answer field: number only, no words.

Incoming: Please supply the value of reported Kp at 0.25 h for the item C[C@@H]1CN(Cc2ccc3c(c2)c(=O)c(C(N)=O)cn3-c2ccc(F)cc2)C[C@H](C)O1 [Compound 58]
Outgoing: 0.2

====

Experiment: Rat IP tissue distribution
Assay type: in vivo
Conditions: rat, brain, ip, 30 mg/kg, unbound brain concentration, rat ip 30 mg/kg
observationType: concentration at 15 min

Incoming: Please supply the value of reported concentration at 15 min for the item `C[C@@H]1CN(Cc2ccc3c(c2)c(=O)c(C(N)=O)cn3-c2ccc(F)cc2)C[C@H](C)O1`
Outgoing: 145 nM

====

Biological target: P-gp (MDR1) (Homo sapiens, UniProt P08183)
Assay: Permeability in MDR1-MDCK cells
Assay type: in vitro ADME
Conditions: dog (MDCK cells), human MDR1 expressed
observationType: Papp B→A (×10⁻⁶ cm/s)
Express your answer in ×10⁻⁶ cm/s, writing the number without its unit.

Incoming: Please supply the value of reported Papp B→A for the item `C[C@@H]1CN(Cc2ccc3c(c2)c(=O)c(C(N)=O)cn3-c2ccc(F)cc2)C[C@H](C)O1`
Outgoing: 79.7

====

Assay: Rat IP tissue distribution
Format: in vivo
Conditions: rat, brain, ip, 30 mg/kg
observationType: Kp uu at 0.25 h
Answer field: number only, no words.

Incoming: Please supply the value of reported Kp uu at 0.25 h for the item `C[C@@H]1CN(Cc2ccc3c(c2)c(=O)c(C(N)=O)cn3-c2ccc(F)cc2)C[C@H](C)O1`
Outgoing: 0.12

====

Assay: Rat plasma protein binding
Format: in vitro ADME
Conditions: rat, plasma
observationType: fraction unbound
Answer field: number only, no words.

Incoming: Please supply the value of reported fraction unbound for the item `C[C@@H]1CN(Cc2ccc3c(c2)c(=O)c(C(N)=O)cn3-c2ccc(F)cc2)C[C@H](C)O1`
Outgoing: 0.306
